# assayName: Fish toxicity test, median tolerance limit 48 hours (Test Example 1)
# Assay type: in vivo, Oryzias latipes (killifish)
# experimentalParameters: in vivo; Oryzias latipes, 48 hours; read-out: Fish toxicity TLm48 (a)
measuredAttribute: LC50 at 48 h

Inquiry: Kindly indicate its recorded LC50 at 48 h. Item: CC1(C)[C@H](C=C(Cl)Cl)[C@H]1C(=O)OC(C#N)c1cccc(Oc2ccc(Br)cc2)c1 (relative stereo)
Reply text: 6 µg/mL

Inquiry: Identify measured LC50 at 48 h corresponding to CC1(C)C(C=C(Cl)Cl)C1C(=O)OC(C#N)c1cccc(Oc2ccccc2)c1 (racemic) [Reference compound (D)]
Reply text: 0.026 µg/mL

Inquiry: Please look at this compound and report its LC50 at 48 h: CNC(=O)Oc1ccc(C)c(C)c1
Reply text: 11.9 µg/mL

Inquiry: Assign LC50 at 48 h to the following record: CC1(C)C(C=C(Cl)Cl)C1C(=O)OC(C#N)c1cccc(Oc2ccc(F)cc2)c1 (racemic) [(E)]
Reply text: 0.003 µg/mL

Inquiry: Specify LC50 at 48 h for CC1(C)C(C=C(Cl)Cl)C1C(=O)OC(C#N)c1cccc(Oc2ccc(Br)cc2)c1 (racemic) and stop.
Reply text: 0.9 µg/mL

Inquiry: Determine from records and report LC50 at 48 h for CC1(C)C(C=C(Cl)Cl)C1C(=O)OCc1cccc(Oc2ccccc2)c1 (racemic)
Reply text: 0.027 µg/mL
